- Test system: SMN protein
- Test Name: SMN protein assay (HTRF) in cultured SMA patient fibroblast cells
- Format: cell-based
- Condition Context: SMA Type 1 human fibroblasts GM03813, 48 hours, 7-point concentration data; fold vs vehicle control
Counter-ions that a name gives are not always drawn.
Readout Type: max. fold increase (maximum fold increase of SMN protein)
Numbers only.

Compound | Value Reported
Cc1cn2cc(NC(=O)c3ccc(C4CCNCC4)cc3F)cc(F)c2n1.Cl | 1.6719
Cc1cn2cc(NC(=O)c3ccc(N4CCN(C)CC4)cn3)nc2c(C)n1 | 1.6085
Cc1cn2cc(NC(=O)c3c(F)cc(N4CCNC(C)C4)cc3F)cc(F)c2n1.Cl (racemic) | 1.658
Cc1cn2cc(NC(=O)c3ccc(N4CCNC(C)(C)C4)nc3)ccc2n1 | 1.624
Cc1cn2cc(NC(=O)c3ccc(N4CCNC(C)C4)cc3F)cc(F)c2n1 (racemic) [Example 39, dihydrochloride] | 1.8791

// for each compound in input: emit max. fold increase (maximum fold increase of SMN protein)
1. Cc1cn2cc(NC(=O)c3ccc(N4CCNC(C)C4)cc3F)cc(Cl)c2n1 (racemic) [Example 54, dihydrochloride]
2. Cc1cn2cc(NC(=O)c3ccc(N4CCNC(C)C4)c(F)c3F)cc(F)c2n1 (racemic) [Example 45, hydrochloride]
3. Cc1cn2cc(NC(=O)c3ccc(N4CCN(C)C(C)C4)nc3)ccc2n1 (racemic)

[1.8217, 1.6445, 1.7306]

====

- Tested on: SMN protein
- Test Name: SMN protein assay (HTRF) in cultured SMA patient fibroblast cells
- Type: cell-based
- Condition Context: SMA Type 1 human fibroblasts GM03813, 48 hours, 7-point concentration data; fold vs vehicle control
Structures can show the parent of a compound that is named as a salt.
Exercise: for every item that follows, state its recorded max. fold increase (maximum fold increase of SMN protein).
Answers are plain numbers.

These solved cases illustrate the format of a correct answer.
Compound | Value Reported
Cc1nc2c(F)cc(NC(=O)c3ccc(N4CCNCC4)cc3F)cc2o1 [Example 58] | 1.7744
Cc1cn2cc(NC(=O)c3ccc(N4CCNCC4)cc3)cc(F)c2n1.Cl [Example 36] | 1.7018
Cc1cn2cc(NC(=O)c3ccc(C4=CCNCC4)nc3)ccc2n1.Cl [Example 77] | 1.6649
Cc1cn2cc(NC(=O)c3ccc(N4CCNC(C)C4)nc3)cc(Cl)c2n1 (racemic) [Example 55, dihydrochloride] | 1.8752
Cc1cn2cc(NC(=O)c3ccc(C4=CCNCC4)cc3F)cc(F)c2n1 [Example 61, hydrochloride] | 1.7077
Cc1nc2c(F)cc(NC(=O)c3ccc(N4CCNC(C)C4)nc3)cc2o1 (racemic) [Example 27] | 1.6617

# batch: return max. fold increase (maximum fold increase of SMN protein) for each of the 4 compounds below
1. CCOc1nc(N2CCNCC2)ccc1C(=O)Nc1cc(F)c2nc(C)cn2c1 [Example 72]
2. Cc1cn2cc(NC(=O)c3ccc(N4CCNC(C)C4)cc3F)c(C)cc2n1 (racemic) [Example 52, dihydrochloride]
3. Cc1cn2cc(NC(=O)c3cnc(N4CCNC(C)C4)c(F)c3)cc(Cl)c2n1 (racemic) [Example 53, hydrochloride]
4. Cc1cn2cc(NC(=O)c3ccc(N4CCNCC4)cc3F)cc(C(F)(F)F)c2n1 [Example 59]

1: 1.7095; 2: 1.8152; 3: 1.6563; 4: 1.7116

Take each entry in turn and give its max. fold increase (maximum fold increase of SMN protein).
1. Cc1nc2c(F)cc(NC(=O)c3ccc(N4CCNCC4)nc3)cc2o1 [Example 26]
2. COc1nc(N2CCNC(C)C2)ccc1C(=O)Nc1cc(F)c2nc(C)cn2c1 (racemic) [Example 74]
3. Cc1cn2cc(NC(=O)c3ccc(N4CCNCC4)cc3F)cc(F)c2n1 [Example 40, dihydrochloride]
4. Cc1cn2cc(NC(=O)c3ccc(N4CCNC(C)C4)cc3F)ccc2n1 (racemic) [Example 18]

1. 1.8316
2. 1.709
3. 1.7607
4. 1.7677

Give max. fold increase (maximum fold increase of SMN protein) for each listed item.
1. Cc1cn2cc(NC(=O)c3cnc(N4CCNC(C)C4)c(F)c3)cc(F)c2n1 (racemic) [Example 47, hydrochloride]
2. COc1nc(N2CCNC(C)(C)C2)ccc1C(=O)Nc1cc(F)c2nc(C)cn2c1 [Example 75]

[1.7065, 1.7035]

====

- Tested on: full length SMN2 minigene mRNA (FL SMN2mini) in HEK293H cells stably transfected with the SMN2-A minigene construct
- Test Name: SMN2 minigene mRNA splicing RT-qPCR assay in cultured cells
- Type: cell-based
- Condition Context: Homo sapiens, HEK293-H, 24 hours, 7-point concentration curve, concentration giving 1.5-fold FL SMN2mini mRNA vs vehicle, read-out: EC1.5x minigene (EC1.5x concentration for production of full length SMN2 minigene mRNA)
Where a name gives a salt, the structure may show the parent alone.
Readout Type: EC (1.5-fold) (µM)
One number for each entry, in µM.

Molecule | Value Reported
Cc1cn2cc(NC(=O)c3ccc(N4C[C@H]5CNC[C@H]5C4)nc3)ccc2n1 [Example 15, hydrochloride] | 0.254
Cc1cn2cc(NC(=O)c3ccc(N4CC(C)NC(C)C4)nc3)cc(C(F)(F)F)c2n1 (stereo not shown) [Example 22] | 0.263
Cc1cn2cc(NC(=O)c3ccc(N4CCNC(C)C4)cc3F)cc(F)c2n1 (racemic) [Example 39, dihydrochloride] | 0.0168

Hey, can you go through the list below and give me EC (1.5-fold) for every item?
1. Cc1cn2cc(NC(=O)c3ccc(C4=CCNCC4)nc3)ccc2n1.Cl [Example 77, hydrochloride]
2. Cc1cn2cc(NC(=O)c3cnc(N4CCNCC4)c(C)c3)cc(F)c2n1 [Example 67]
3. Cc1cn2cc(NC(=O)c3ccc(N4CCNC(C)C4)cc3F)cc(C)c2n1 (racemic) [Example 37, dihydrochloride]
4. Cc1cn2cc(NC(=O)c3ccc(N4CCNCC4)cn3)nc2c(C)n1 [Example 11]
5. Cc1cn2cc(NC(=O)c3ccc(N4CCNC(C)C4)nc3)nc2c(C)n1 (racemic) [Example 7]

[0.0641, 0.318, 0.028, 0.297, 0.142]

====

- System: SMN protein
- Test Name: SMN protein assay (HTRF) in cultured SMA patient fibroblast cells
- Assay type: cell-based
- Condition Context: SMA Type 1 human fibroblasts GM03813, 48 hours, 7-point concentration data; fold vs vehicle control
Structures can show the parent of a compound that is named as a salt.
Readout Type: max. fold increase (maximum fold increase of SMN protein)
Answers are plain numbers.

Examples with their reported max. fold increase (maximum fold increase of SMN protein) follow.
Molecule | Value Reported
COc1nc(N2CCNCC2)ccc1C(=O)Nc1cc(F)c2nc(C)cn2c1 | 1.7581
CCOc1cc(N2CCNCC2)ncc1C(=O)Nc1cc(F)c2nc(C)cn2c1 | 1.933
Cc1cn2cc(NC(=O)c3ccc(N4CCNCC4)nc3)ccc2n1 | 1.5912
Cc1nc2c(F)cc(NC(=O)c3ccc(N4CCN5CCC[C@H]5C4)nc3)cc2o1 | 1.6652

Tell us which max. fold increase (maximum fold increase of SMN protein) value is on record for Cc1cn2cc(NC(=O)c3ccc(N4CCNCC4)nc3)cc(F)c2n1 [Example 41, dihydrochloride]
1.7973

====

- Tested on: full length SMN2 minigene mRNA (FL SMN2mini) in HEK293H cells stably transfected with the SMN2-A minigene construct
- Test Name: SMN2 minigene mRNA splicing RT-qPCR assay in cultured cells
- Type: cell-based
- Condition Context: Homo sapiens, HEK293-H, 24 hours, 7-point concentration curve, concentration giving 1.5-fold FL SMN2mini mRNA vs vehicle, read-out: EC1.5x minigene (EC1.5x concentration for production of full length SMN2 minigene mRNA)
Structures can show the parent of a compound that is named as a salt.
Readout Type: log10 EC (1.5-fold) (log10 of the value in µM)
// stored as log10 of EC (1.5-fold) expressed in µM

Record excerpt, results attached:
Compound | log10 EC (1.5-fold)
Cc1cn2cc(NC(=O)c3ccc(N4CCNCC4)cc3F)cc(C(F)(F)F)c2n1 [Example 59] | -0.96
Cc1cn2cc(NC(=O)c3ccc(N4CCN(C)CC4)nc3)cc(F)c2n1 [Example 32] | -1.03
Cc1cn2cc(NC(=O)c3ccc(N4CCN(C)CC4)cn3)nc2c(C)n1 [Example 9] | -0.10

// batch mode: one log10 EC (1.5-fold) value per listed entry
1. Cc1cn2cc(NC(=O)c3ccc(N4CCNCC4)cc3)cc(F)c2n1.Cl [Example 36, hydrochloride]
2. Cc1cn2cc(NC(=O)c3ccc(N4CCNC(C)C4)cn3)nc2c(C)n1 (racemic) [Example 10]
3. Cc1cn2cc(NC(=O)c3cnc(N4CCNC(C)C4)c(F)c3)cc(F)c2n1 (racemic) [Example 47, hydrochloride]
4. Cc1cn2cc(NC(=O)c3c(F)cc(N4CCNC(C)C4)cc3F)cc(Cl)c2n1 (racemic) [Example 57, trihydrochloride]
5. Cc1cn2cc(NC(=O)c3ccc(C4CCNCC4)nc3)cc(F)c2n1 [Example 79, dihydrochloride]

1. -1.56
2. -0.18
3. -0.40
4. -1.58
5. -1.25
